Data provenance: a melting point compilation (Tetko et al.; mined from patent text by program, amines drawn as free bases though some values may be those of a salt)

Some compounds, each annotated with its measured melting point.

CC12CCC(O)CC1=CCC1C2CCC2(C)C(=C(F)CO)CCC12 (stereo not drawn) :: 198 to 203 °C
COC(=O)c1cccc(-c2ccc(OC)c(OC3CCCC3)c2)c1 :: 85 to 87 °C
CCOC(=O)c1oc(-c2ccccc2)cc(=O)c1Br :: 135 °C
COC(=O)Cc1ccc2c(c1)CC(NS(=O)(=O)c1ccc(Cl)cc1)C2 (stereo not drawn) :: 80 to 82 °C
CCOC(=O)C1=Cc2c(OC)ccc(OC)c2CC1 :: 74 to 76 °C
COC(=O)c1ccc(Cl)cc1NC(=O)Cc1ccsc1 :: 96 to 97 °C

QUERY: Please give the documented melting point of O=[N+]([O-])c1ccc(N2CCC(Nc3ncnc4c3ncn4[C@@H]3C[C@H](CO)[C@@H](O)[C@H]3O)C2)cc1 (stereo partly drawn)
RESULT: 119 to 120 °C

QUERY: Please give the documented melting point of CCOC(=O)COC(c1cccc(-c2nnc(Nc3ccc(Cl)c(Cl)c3)s2)c1)c1cccc(C(F)(F)F)c1 (stereo not drawn)
RESULT: 135 to 136 °C

* * *

Some molecules, each annotated with its measured melting point.

Consider the reported melting point for these molecules:
O=C1[C@H]2CCC[C@H]2N(C(=O)CNCc2ccccc2)c2ccccc2N1Cc1ccccc1 (relative stereo) :: 95 to 98 °C
O=C1C2Cc3cc4ccccc4n3CC2CN1Cc1ccccc1 (stereo unspecified) :: 121 to 123 °C
CC(=O)NCC1CC1c1c(Br)ccc2nn(C)cc12 (stereo unspecified) :: 135 to 137 °C
COc1c(N2CC(C)(N)C3(CC3)C2)c(F)cc2c(=O)c(C(=O)O)cn([C@@H]3C[C@@H]3F)c12 (stereo partly specified) :: 195 to 200 °C
COCCOc1cc2ncnc(NC3=CC(=O)C4(Cc5ccccc5)OC4C3=O)c2cc1OC (stereo unspecified) :: 104 to 108 °C

Let us move to another entry and its melting point.
QUERY: Please give the documented melting point of `O=c1c2ccccc2ccc2ccc(S(=O)(=O)C(F)(F)F)cc12`
RESULT: 145 to 149 °C

* * *

ENDPOINT: melting point

Consider the reported melting point for these compounds:
C=CCn1c(Oc2cnn(-c3c(Cl)cc(C(F)(F)F)cc3Cl)n2)nc(C#N)c1C#N :: 121 to 131 °C
O=c1[nH]c2c(Cl)cccc2s1 :: 203 to 204 °C
COc1ccc(Cc2nc3cc(Cl)cc(Br)c3o2)cc1OC :: 123 to 124 °C
CC(C)[C@H](NC(=O)CC[C@H](C)CNC(=O)Cc1ccccc1)[C@@H](O)c1c(-c2ccccc2)c1=O :: 152 to 154 °C

QUERY: Please give the documented melting point of `NC(=O)c1nc(-c2cccc(O)c2)nc2c1[nH]c(=O)n2-c1cccc2[nH]ccc12`
RESULT: > 260 °C

QUERY: Please give the documented melting point of `Brc1ccccc1Oc1nc2ccccc2n2cncc12`
RESULT: 180 to 182 °C

* * *

ENDPOINT: melting point

Consider the reported melting point for these molecules:
COc1cc(OCc2ccccn2)ccc1/C=C/c1cc(/C=C/c2ccc3c(c2)OCCO3)n[nH]1 :: 153 to 155 °C
CC(C)(C)c1ccc(SC(CCl)S(=O)(=O)c2ccc(Cl)cc2)cc1 (stereo not drawn) :: 52 to 68 °C

QUERY: Please give the documented melting point of `Cc1nc(Cn2c(=O)sc3cc(F)c(N=C=O)cc32)no1`
RESULT: 125 to 127 °C

* * *

Some molecules, each annotated with its measured melting point.

Consider the reported melting point for these molecules:
Cn1c(=O)c2c3oc4ccccc4oc3c3[nH]c4cc(O)ccc4c3c2c1=O :: 360 °C
COc1ccc(Cc2nc(N(C)CCO)c3c(C)c(C#N)sc3n2)cc1OC :: 62 to 63 °C
CN1CS(=Nc2ccc3[nH]nnc3c2)c2ccccc21 (centres undefined) :: 240 °C
COC(=O)c1ccc2cc(-c3ccc(C(=O)O)c(C45CC6CC(CC(C6)C4)C5)c3)ccc2c1 :: 239 to 240 °C
OCc1ccc(C2=C(C3CCCC3)CCC2=NO)cc1 :: 187 to 190 °C
CCC#CCOc1cc2c(cc1/C=C/c1ccc(C(=O)O)cc1)C(C)(C)CCC2(C)C :: 144 to 145 °C

QUERY: Please give the documented melting point of `Cc1ccc2c(c1)C=Cc1cc(C)ccc1C2c1cn(-c2ccnc(NCC(=O)O)n2)c(=O)[nH]c1=S`
RESULT: 205 °C

QUERY: Please give the documented melting point of `COC(C)(C)C(=O)O[C@H]1C[C@H](O)C=C2C=C[C@H](C)[C@H](CC[C@@H]3C[C@@H](O)CC(=O)O3)[C@H]21`
RESULT: 150 to 152 °C

QUERY: Please give the documented melting point of `CC(=O)Oc1ccc([C@@H]2SC(C)(C)[C@H](C(=O)O)N2C(C)=O)cc1`
RESULT: 199 to 201 °C

QUERY: Please give the documented melting point of `COc1ccc2c(c1)Oc1ccccc1C2`
RESULT: 72 to 74 °C

QUERY: Please give the documented melting point of `Cc1c(COc2cccc3cc(NS(=O)(=O)C(F)(F)F)ccc23)cccc1-c1ccccc1`
RESULT: 124 to 125 °C

QUERY: Please give the documented melting point of `CC(C)(c1ccccc1)c1ccc(O)c(-n2nc3ccccc3n2)c1`
RESULT: 119 to 121 °C

QUERY: Please give the documented melting point of `CN(C)c1ccc(NC(=O)N(CC2CCCCC2)C[C@H]2CC[C@H](CN(CC3CCCCC3)C(=O)Nc3ccc(N(C)C)cc3)CC2)cc1`
RESULT: 210 to 212 °C

QUERY: Please give the documented melting point of `N#Cc1ccc(OCCCCl)cc1`
RESULT: 40 to 44 °C

QUERY: Please give the documented melting point of `Cc1c(SCc2ccc(-c3ccccc3)cc2)cnn(C(C)(C)C)c1=O`
RESULT: 112 to 115 °C

QUERY: Please give the documented melting point of `CSc1cc2c(cc1C(F)(F)F)N(C(=O)Nc1ccc(C(=O)N(C)c3ccncc3)cc1)CC2`
RESULT: 230 to 232 °C

QUERY: Please give the documented melting point of `Nc1nc(/C(=N/OCC(=O)OC(c2ccccc2)c2ccccc2)C(=O)O)cs1`
RESULT: 125 °C

QUERY: Please give the documented melting point of `COC(=O)CS(=O)(=O)Nc1c(F)cc(F)cc1F`
RESULT: 99 to 100 °C

QUERY: Please give the documented melting point of `CN1Cc2c(C(=O)OC(C)(C)C)ncn2-c2ccccc2C1=O`
RESULT: 216 to 217 °C

QUERY: Please give the documented melting point of `CCCCP(=O)(C(=O)c1c(OC)cccc1OC)C(=O)c1c(OC)cccc1OC`
RESULT: 151 to 152 °C

QUERY: Please give the documented melting point of `Cc1cc2c(c3c(=O)cc(C(=O)O)oc13)OC(C)(C)c1cc(S(=O)(=O)O)ccc1-2`
RESULT: 264 to 266 °C

QUERY: Please give the documented melting point of Fc1ccc2[nH]cc(C3=CCN(CC4COc5ccc6[nH]c(C(F)(F)F)nc6c5O4)CC3)c2c1 (centres undefined)
RESULT: 236 to 238 °C

QUERY: Please give the documented melting point of O=C1NC(=O)C(Cc2ccc(OCCON=Cc3ccc4ccccc4c3)cc2)S1 (centres undefined)
RESULT: 108 to 111 °C

QUERY: Please give the documented melting point of COc1cc(Oc2ccc(S(C)(=O)=O)nc2)cc2cc(C3=NCC(CC(=O)NCC(C)(C)O)S3)[nH]c12 (centres undefined)
RESULT: 173 to 174 °C

QUERY: Please give the documented melting point of `COc1ccc2cc([C@H](C)C(=O)OCC(=O)COC(=O)Cc3ccc(CO[N+](=O)[O-])cc3)ccc2c1`
RESULT: 92 to 95 °C

QUERY: Please give the documented melting point of `CC(C)c1cc(CCC(=O)O)cc(C(C)C)c1O`
RESULT: 106 °C

QUERY: Please give the documented melting point of `c1ccc(OCCN2CCN(Cc3c[nH]c4ncccc34)CC2)cc1`
RESULT: 143 °C

QUERY: Please give the documented melting point of `O=C(Nc1cscn1)C(F)(F)F`
RESULT: 138 to 139 °C

QUERY: Please give the documented melting point of O=C(NC(Cc1ccc(OCc2ccccc2)cc1)C(=O)O)c1cn2cc(-c3ccc(Cl)cc3)ccc2n1 (centres undefined)
RESULT: 270 to 271 °C

QUERY: Please give the documented melting point of O=C1N(c2ccc(Cl)cc2)c2ncccc2C1(Cc1ccncc1)Cc1ccccn1 (centres undefined)
RESULT: 193 to 195 °C

QUERY: Please give the documented melting point of `Nn1cccc1C(=O)c1cccs1`
RESULT: 81 to 82 °C

QUERY: Please give the documented melting point of `O=C(CNCc1ccccc1)CP(=O)(O)C(Cl)(Cl)Cl`
RESULT: 194 to 195 °C

QUERY: Please give the documented melting point of `O=C(N[C@H]1CCCNC1=O)c1ccccc1C(F)(F)F`
RESULT: 155 to 156 °C

QUERY: Please give the documented melting point of `C=C(c1ccc(OC)cc1)c1ccc(N2CCCC2)cc1`
RESULT: 159 to 162 °C
